- Tested on: Saccharomyces cerevisiae
- experiment_description: protein stability index of tFT-peptide fusion (C-terminal peptide) (PSI (0-1 scale)); higher = more stable (slower turnover);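 further: PSI is a weighted mean of sequencing reads over stability bins, variants kept only with over 10 reads, mCherry proximal and sfGFP distal, peptide attached via GGGS linker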
- reported_conditions: genetic background: cdc34-1; temperature: 37 C
Rule: yes for protein stability index not less than 0.5, no for anything less.

sequence_input | qualitative_label
LCHILAIIRRGA | yes
WRCLHLVYLFFH | no
AFLFLFSITCIV | no
EGLCCGAYFLVF | yes
FLWLCLLSLFFR | no
SLTHTPLGVTRT | yes
PPTHDSPVWSPS | yes
PSFLAIRVCLLV | no
WFIPRSVCRWLF | yes
CMLPWPILLCPF | no

###

The following sequences are listed with their measured protein stability index values.
- Test system: Saccharomyces cerevisiae
- experiment_description: protein stability index of tFT-peptide fusion (C-terminal peptide) (PSI (0-1 scale)); higher = more stable (slower turnover)
- reported_conditions: genetic background: wild type; temperature: 30 C

sequence_input | system_tested | protein stability index
LPRPPLLTPSCL | Saccharomyces cerevisiae | 0.746
VFQFVLGVILGW | Saccharomyces cerevisiae | 0.529
EAKKKKRRDRKE | Saccharomyces cerevisiae | 0.621
EVGLGAAGLSGP | Saccharomyces cerevisiae | 0.749
SLGLHADLLSRT | Saccharomyces cerevisiae | 0.672
SQGAGKCIIIAA | Saccharomyces cerevisiae | 0.561
LSDKTALDRPVH | Saccharomyces cerevisiae | 0.625
WPHGHVNTHRIG | Saccharomyces cerevisiae | 0.737
ESRRGILFIYIN | Saccharomyces cerevisiae | 0.13
RSRDDAGASLHL | Saccharomyces cerevisiae | 0.667
WFGCSTVWVRVQ | Saccharomyces cerevisiae | 0.147
SNPLRPHLPPHF | Saccharomyces cerevisiae | 0.714
DRFLPPALVMYI | Saccharomyces cerevisiae | 0.566
YVSYVFDYEVRH | Saccharomyces cerevisiae | 0.709
GGAGLGVVLGWW | Saccharomyces cerevisiae | 0.683
ARLHIPSLLPAS | Saccharomyces cerevisiae | 0.68
EAGRRVGARRVG | Saccharomyces cerevisiae | 0.689
LPPSNYPCPSGK | Saccharomyces cerevisiae | 0.706
TAKVYEKEGGEE | Saccharomyces cerevisiae | 0.671

###

- Test system: Saccharomyces cerevisiae
- experiment_description: protein stability index of tFT-peptide fusion (C-terminal peptide) (PSI (0-1 scale)); higher = more stable (slower turnover)
- reported_conditions: genetic background: wild type; temperature: 30 C

sequence_input | protein stability index
APVLSVSFFSFL | 0.718
GKVGSLGLVLSP | 0.682
FGIDVRPRPSQS | 0.698
FAVLGGGGGGGW | 0.711
PLSLSSPPLFLL | 0.639
PPLGPTSARALA | 0.619
LRLPKGVSLVDI | 0.609
PPHSTPPTGRPG | 0.753
PARQDRPPDHAS | 0.729
VLALPSSPLLPS | 0.643
SRSCRHGELKFA | 0.718
EPNSPTYLSMLI | 0.637
PPSLPPPPPVHP | 0.648
FFGGAGVTEGLG | 0.683
SGLERGCSRCWH | 0.687
SSLNLLIHTAPL | 0.739
VVWEGSEFVSLA | 0.671
KEARKREHKQTN | 0.67
FAISPCVSLAFF | 0.642
APKCRRRNSSGL | 0.68
LPPPSPGLPLSP | 0.677
DGVQTVPFSCRL | 0.773
FWGVAPSDRVSK | 0.697
WSSVSGEFRSLW | 0.707
TPSCPALRGDAE | 0.661
SRFAAGSRVLFL | 0.758

These measurements were taken from the supplement of paper PMC10724198.
